# Test system: high-grade ovarian cancer cells (OVCAR8) labeled with luciferase gene
# protocol: in vivo therapy experiment, orthotopic OVCAR8-L ovarian cancer mouse model
# Parameters: species or system mice
# condition parameters: GP-2250 500 mg/kg 3 times per week i.p., PARP inhibitor 50 mg/kg 5 times per week i.p., take down day 49
Listed below: tumor weight values for each entry.

chemical structure: NC(=O)c1cccc2cn(-c3ccc([C@@H]4CCCNC4)cc3)nc12
measurement target: high-grade ovarian cancer cells (OVCAR8) labeled with luciferase gene
tumor weight, g: 0.38

chemical structure: O=S1(=O)CCOCN1
measurement target: high-grade ovarian cancer cells (OVCAR8) labeled with luciferase gene
tumor weight, g: 2.9

chemical structure: CNCc1ccc(-c2[nH]c3cc(F)cc4c3c2CCNC4=O)cc1
measurement target: high-grade ovarian cancer cells (OVCAR8) labeled with luciferase gene
tumor weight, g: 0.52

chemical structure: O=C(c1cc(Cc2n[nH]c(=O)c3ccccc23)ccc1F)N1CCN(C(=O)C2CC2)CC1
measurement target: high-grade ovarian cancer cells (OVCAR8) labeled with luciferase gene
tumor weight, g: 0.53
